B1: Osa-1-4 twister ribozyme (parent)
chain: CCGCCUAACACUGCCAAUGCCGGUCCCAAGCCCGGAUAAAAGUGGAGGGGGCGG

# Variants of: B1
# protocol.text: self-cleavage, relative activity (ratio to wild type); higher = more cleavage; co-transcriptional
measured.attribute: self-cleavage
Answers are plain numbers.

Parameters: items (list). Returns: self-cleavage for each item.
1. C27A G35U
2. G19U G45C
3. C26G G51C
4. A40G G19U

*A*
1. 0.16
2. 0.04
3. 0.05
4. 0.11

Please state, for each entry, its recorded self-cleavage.
1. A10U C31A
2. A46G A8U
3. A28C G49A
4. G49U U12G

*A*
1: 0; 2: 0.03; 3: 0.16; 4: 0.07

Hi, could you look up self-cleavage for each item in my list?
1. A40C C31G
2. A17C G34U
3. C15U C26U
4. A8C C11G
5. C27U C9U
6. A7G C32G

*A*
0.02
0.26
0.08
0.06
0.1
0.09

Value sought for every listed variant: self-cleavage.
1. G47U U37C
2. C11A G50U
3. A41C A46U
4. A36U U18C

*A*
[0.37, 0.77, 0.08, 0.98]

Each recorded value in this set is attributed to the RNAGym collection of RNA variant scans (doi:10.1002/anie.201605470).
